test system: L5178Y; assay: Cytotoxicity against mouse L5178Y cells assessed as reduction in cell viability incubated for 24 hrs by MTT assay; format: functional, cell-based
pIC50: −log10 of the molar value.

| compound | pIC50 |
| --- | --- |
| COC(=O)c1cc(O)cc(OC)c1C(=O)c1c(O)cc(C)cc1O [SULOCHRIN] | 5.29 |

// provenance: ChEMBL document CHEMBL4673329
